ASSAYED SYSTEM: cathepsin E (Homo sapiens, UniProt P14091)
Construct: purchased R&D Systems 1294-AS-010
Sequence (P14091 54-396): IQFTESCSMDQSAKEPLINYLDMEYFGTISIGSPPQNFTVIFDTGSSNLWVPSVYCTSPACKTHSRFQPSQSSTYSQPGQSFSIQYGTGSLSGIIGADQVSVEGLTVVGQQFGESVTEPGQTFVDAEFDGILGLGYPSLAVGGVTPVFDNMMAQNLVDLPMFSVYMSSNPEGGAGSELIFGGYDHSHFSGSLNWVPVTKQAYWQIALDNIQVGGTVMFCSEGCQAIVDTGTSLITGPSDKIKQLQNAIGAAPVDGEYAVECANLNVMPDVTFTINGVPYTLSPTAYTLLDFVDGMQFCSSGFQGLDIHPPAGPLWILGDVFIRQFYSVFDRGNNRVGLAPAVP
ASSAY PROTOCOL: Cathepsin E fluorometric counter-screen
Type: biochemical
EXPERIMENTAL PARAMETERS: z-score = number of standard deviations below DMSO control
Recorded Cathepsin-E Z-Score at 50 μM for the following compounds
Form rule: numeric answer, no unit written next to it.

# example entries with known answers
item_smiles=O=S(=O)(Nc1ccccc1-c1ccccc1)c1cccs1 assayed_system="cathepsin E (Homo sapiens, UniProt P14091)" measured_attribute="Cathepsin-E Z-Score at 50 μM" value_measured=−0.3
item_smiles=O=S(=O)(Nc1cc(Cl)ccc1Oc1ccccc1)c1ccc2c(c1)OCCO2 assayed_system="cathepsin E (Homo sapiens, UniProt P14091)" measured_attribute="Cathepsin-E Z-Score at 50 μM" value_measured=−0.1

Task item: // output Cathepsin-E Z-Score at 50 μM; input O=S(=O)(Nc1cc(Cl)ccc1Oc1ccccc1)c1cccs1 ; system cathepsin E (Homo sapiens, UniProt P14091)
Reply: 0.4

Task item: Give Cathepsin-E Z-Score at 50 μM; test system cathepsin E (Homo sapiens, UniProt P14091); compound O=[N+]([O-])c1ccccc1S(=O)(=O)Nc1cc(Cl)ccc1Oc1ccccc1
Reply: 0.9
